assayedTarget: UniProt:P15538
Sequence (P15538 25-503): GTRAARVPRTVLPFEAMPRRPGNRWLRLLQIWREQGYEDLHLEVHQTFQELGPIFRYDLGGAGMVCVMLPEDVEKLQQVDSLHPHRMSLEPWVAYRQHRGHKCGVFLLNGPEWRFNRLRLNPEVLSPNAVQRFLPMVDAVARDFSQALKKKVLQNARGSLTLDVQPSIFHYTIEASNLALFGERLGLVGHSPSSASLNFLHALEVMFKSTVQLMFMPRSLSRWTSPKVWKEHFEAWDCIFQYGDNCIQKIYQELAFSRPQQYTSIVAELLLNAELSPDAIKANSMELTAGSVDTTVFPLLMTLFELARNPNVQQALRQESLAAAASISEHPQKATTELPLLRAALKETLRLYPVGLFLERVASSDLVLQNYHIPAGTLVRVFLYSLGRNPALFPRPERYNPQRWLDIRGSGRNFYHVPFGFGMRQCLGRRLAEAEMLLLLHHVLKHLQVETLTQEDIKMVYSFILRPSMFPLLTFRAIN
assayText: G-402 cellular enzyme assay, human CYP11B1 (cortisol release)
measurementContext: G-402 cells, 1 μM Deoxycortisol
Source text: Herein we identified the use of the G-402 cell line as a host cell to ectopically express (transiently or stably) enzymes of the CYP11 family. […] Importantly the identified cell line G-402 expresses co-factors (adrenodoxin and adrenodoxin reductase) important for the activity of the CYP11 family and no relevant enzyme activity of the CYP11 family (in comparison to H295R cells) was detected in these cells. […]
Class boundaries, taken from values of EC50, are as follows: low (below 200 nM), mid (200 nM to below 500 nM), high (500 nM or more)

[
  {
    "molecule": "CN(C)C(=O)CC1CCc2c(-c3ccc(C(F)(F)F)cc3F)cncc21 (racemic)",
    "classAssignment": "high"
  },
  {
    "molecule": "O=C(CC1CCc2c(-c3ccc(C(F)(F)F)c(F)c3)cncc21)N1CCOCC1 (racemic)",
    "classAssignment": "low"
  },
  {
    "molecule": "O=C(CC1CCc2c(-c3ccc(C(F)(F)F)c(F)c3)cncc21)Nc1ccon1 (racemic)",
    "classAssignment": "low"
  },
  {
    "molecule": "OCCC1CCCc2c(-c3ccc(C(F)(F)F)cc3F)cncc21 (racemic)",
    "classAssignment": "low"
  },
  {
    "molecule": "CCNC(=O)CC1CCCc2c(-c3ccc(C(F)(F)F)cc3F)cncc21 (racemic)",
    "classAssignment": "high"
  },
  {
    "molecule": "O=C(CC1CCc2c(-c3ccc(C(F)(F)F)c(F)c3)cncc21)N1CCCCC1 (racemic)",
    "classAssignment": "low"
  },
  {
    "molecule": "CN(C(=O)CC1CCc2c(-c3ccc(C(F)(F)F)cc3F)cncc21)C1CC1 (racemic)",
    "classAssignment": "mid"
  },
  {
    "molecule": "CCOC(=O)CC1CCCc2c(-c3ccc(C(F)(F)F)cc3F)cncc21 (racemic)",
    "classAssignment": "high"
  },
  {
    "molecule": "C[C@H]1CCCN1C(=O)CC1CCc2c(-c3ccc(C(F)(F)F)cc3F)cncc21 (mixture of isomers)",
    "classAssignment": "mid"
  },
  {
    "molecule": "O=C(CC1CCc2c(-c3ccc(C(F)(F)F)c(F)c3)cncc21)NC1CC1 (racemic)",
    "classAssignment": "mid"
  },
  {
    "molecule": "CCCNC(=O)CC1CCc2c(-c3ccc(C(F)(F)F)c(F)c3)cncc21 (racemic)",
    "classAssignment": "low"
  },
  {
    "molecule": "CC(C)N(C)C(=O)CC1CCc2c(-c3ccc(C(F)(F)F)cc3F)cncc21 (racemic)",
    "classAssignment": "high"
  },
  {
    "molecule": "CCNC(=O)CC1CCc2c(-c3ccc(C(F)(F)F)c(F)c3)cncc21 (racemic)",
    "classAssignment": "low"
  }
]
